This listing pairs molecules with measured IC50.
- Tested on: MDCK
- Procedure Details: Compound was tested for inhibition of MDCK cell metabolism using MTT assay method.
- Assay type: functional, cell-based
- Stated Conditions: Canis lupus familiaris

Recorded results for 5 molecules are shown here.
COc1cccc(C2CC3=Nc4ccc(Cl)cc4S(=O)(=O)C3=C(O)C2)c1OC (stereo unspecified)	> 100 µM
CC1(C)CC2=Nc3ccc(Cl)cc3S(=O)(=O)C2=C(O)C1	> 100 µM
OC1=C2Sc3cc(F)ccc3N=C2CC(c2ccc(Cl)cc2)C1 (stereo unspecified)	> 100 µM
OC1=C2Sc3cc(Cl)ccc3N=C2CC(c2ccc(Cl)cc2)C1 (stereo unspecified)	10 µM
COc1cccc(C2CC3=Nc4ccc(F)cc4S(=O)(=O)C3=C(O)C2)c1 (stereo unspecified)	> 100 µM

# evaluate next
Item CC1(C)CC2=Nc3ccc(F)cc3S(=O)(=O)C2=C(O)C1 with MDCK - IC50? > 100 µM

* * *

- Tested on: Plasmodium falciparum
- Procedure Details: Inhibition of parasitaemia in ring-form development assay
- Assay type: functional, organism-based
Reported Metric: IC50 (µM)
Field: numeric (µM). Do not append units.

Recorded results for 6 compounds are shown here.
COc1cccc(C2CC3=Nc4ccc(F)cc4S(=O)(=O)C3=C(O)C2)c1 (stereo not given)	3
OC1=C2Sc3cc(F)ccc3N=C2CC(c2ccc(Cl)cc2)C1 (stereo not given)	3
O=S1(=O)C2=C(O)CC(c3ccc(Cl)cc3)CC2=Nc2ccc(Cl)cc21 (stereo not given)	4
O=S1(=O)C2=C(O)CC(c3ccccc3)CC2=Nc2ccc(Cl)cc21 (stereo not given)	5
COc1cccc(C2CC3=Nc4ccc(Cl)cc4S(=O)(=O)C3=C(O)C2)c1OC (stereo not given)	2
O=S1(=O)C2=C(O)CC(c3ccc(Cl)cc3)CC2=Nc2ccc(F)cc21 (stereo not given)	6

Which IC50 value belongs to CC1(C)CC2=Nc3ccc(Cl)cc3S(=O)(=O)C2=C(O)C1 ? 20

* * *

- Study System: UniProt Q9N6S8
- Sequence (Q9N6S8 whole entry): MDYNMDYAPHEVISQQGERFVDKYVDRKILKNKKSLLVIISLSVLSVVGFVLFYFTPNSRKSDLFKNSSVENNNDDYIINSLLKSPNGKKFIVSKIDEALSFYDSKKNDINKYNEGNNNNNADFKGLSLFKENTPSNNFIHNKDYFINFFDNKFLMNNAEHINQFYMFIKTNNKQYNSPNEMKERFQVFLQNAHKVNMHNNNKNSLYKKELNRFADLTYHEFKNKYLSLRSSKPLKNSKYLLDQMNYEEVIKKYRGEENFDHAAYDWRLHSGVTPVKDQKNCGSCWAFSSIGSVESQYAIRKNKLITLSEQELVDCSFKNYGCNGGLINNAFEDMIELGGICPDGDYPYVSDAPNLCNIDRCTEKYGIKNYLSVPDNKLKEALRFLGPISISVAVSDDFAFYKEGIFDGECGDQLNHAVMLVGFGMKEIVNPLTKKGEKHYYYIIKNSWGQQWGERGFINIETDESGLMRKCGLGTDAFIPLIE
- Procedure Details: Inhibition of falcipain activity
# strict inequality: IC50 < 10 µM yields 1 (yes), everything else yields 0 (no)

These recorded examples may help you get a feel for the data.
COc1cccc(C2CC3=Nc4ccc(Cl)cc4S(=O)(=O)C3=C(O)C2)c1OC (stereo not drawn)	1 (yes)
COc1cccc(C2CC3=Nc4ccc(Cl)cc4SC3=C(O)C2)c1 (stereo not drawn)	0 (no)
COc1ccc(C2CC3=Nc4ccc(Cl)cc4SC3=C(O)C2)cc1OC (stereo not drawn)	0 (no)
CC1(C)CC2=Nc3ccc(Cl)cc3S(=O)(=O)C2=C(O)C1	1 (yes)
OC1=C2Sc3cc(Cl)ccc3N=C2CCC1	0 (no)
CC1(C)CC2=Nc3ccc(F)cc3S(=O)(=O)C2=C(O)C1	1 (yes)
OC1=C2Sc3cc(F)ccc3N=C2CC(c2ccccc2)C1 (stereo not drawn)	0 (no)
O=S1(=O)C2=C(O)CC(c3ccc(Cl)cc3)CC2=Nc2ccc(Cl)cc21 (stereo not drawn)	1 (yes)
COc1cccc(C2CC3=Nc4ccc(F)cc4SC3=C(O)C2)c1OC (stereo not drawn)	0 (no)
COc1ccc(C2CC3=Nc4ccc(F)cc4S(=O)(=O)C3=C(O)C2)cc1OC (stereo not drawn)	1 (yes)

Is it true that IC50 reported for O=S1(=O)C2=C(O)CC(c3ccccc3)CC2=Nc2ccc(Cl)cc21 (stereo not drawn) is less than 10 µM? 1 (yes)

Is it true that IC50 reported for COc1ccc(C2CC3=Nc4ccc(Cl)cc4S(=O)(=O)C3=C(O)C2)cc1OC (stereo not drawn) is less than 10 µM? 0 (no)

Is it true that IC50 reported for OC1=C2Sc3cc(Cl)ccc3N=C2CC(c2ccc(Cl)cc2)C1 (stereo not drawn) is less than 10 µM? 1 (yes)

Is it true that IC50 reported for O=S1(=O)C2=C(O)CC(c3ccc(Cl)cc3Cl)CC2=Nc2ccc(Cl)cc21 (stereo not drawn) is less than 10 µM? 0 (no)

Is it true that IC50 reported for O=S1(=O)C2=C(O)CC(c3ccc(Cl)cc3)CC2=Nc2ccc(F)cc21 (stereo not drawn) is less than 10 µM? 1 (yes)

Is it true that IC50 reported for CC1(C)CC2=Nc3ccc(Cl)cc3SC2=C(O)C1 is less than 10 µM? 0 (no)

Is it true that IC50 reported for COc1ccc(C2CC3=Nc4ccc(F)cc4SC3=C(O)C2)cc1OC (stereo not drawn) is less than 10 µM? 0 (no)

Is it true that IC50 reported for COc1ccc(C2CC3=Nc4ccc(Cl)cc4S(=O)(=O)C3=C(O)C2)cc1 (stereo not drawn) is less than 10 µM? 0 (no)

* * *

This listing pairs compounds with measured pIC50.
- Test system: Plasmodium falciparum
- Procedure Details: Inhibition of parasitaemia in ring-form development assay
- Format: functional, organism-based
pIC50 field: float, defined as -log10 of concentration (mol/L).

COc1ccc(C2CC3=Nc4ccc(F)cc4S(=O)(=O)C3=C(O)C2)cc1OC (stereo not drawn)	6.00
OC1=C2Sc3cc(Cl)ccc3N=C2CC(c2ccc(Cl)cc2)C1 (stereo not drawn)	5.52

# evaluate next
Item CC1(C)CC2=Nc3ccc(F)cc3S(=O)(=O)C2=C(O)C1 with Plasmodium falciparum - pIC50? 4.52
